# System under test: Adenosine receptors; A1 & A2a (Homo sapiens) (UniProt P30542+P29274)
# Sequence (P29274 whole entry, looked up, one chain of several): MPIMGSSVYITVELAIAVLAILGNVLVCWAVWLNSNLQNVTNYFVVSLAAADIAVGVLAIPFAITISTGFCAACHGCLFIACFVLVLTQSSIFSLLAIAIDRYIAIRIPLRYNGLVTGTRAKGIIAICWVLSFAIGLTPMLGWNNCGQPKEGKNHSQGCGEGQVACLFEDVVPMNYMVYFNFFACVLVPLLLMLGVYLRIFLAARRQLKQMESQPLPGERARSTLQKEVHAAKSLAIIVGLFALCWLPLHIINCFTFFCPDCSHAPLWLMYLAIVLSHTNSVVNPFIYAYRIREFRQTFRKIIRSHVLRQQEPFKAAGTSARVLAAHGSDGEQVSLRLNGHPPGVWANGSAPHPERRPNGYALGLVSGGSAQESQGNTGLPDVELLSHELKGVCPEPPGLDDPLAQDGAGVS
# Procedure summary: Ratio of binding affinity for adenosine A2A receptor to adenosine A1 receptor
# Type: protein assay
Property: Ratio

Solved cases (5 shown):
>  <Smiles code>
Nc1nc(NC(=O)CCC2CCCC2)nc2c1ncn2[C@@H]1O[C@H](CO)[C@@H](O)[C@H]1O

>  <Val>
8

$$$$
>  <Smiles code>
CCNC(=O)[C@H]1O[C@@H](n2cnc3c(N)nc(NC(=O)CCC4CCCC4)nc32)[C@H](O)[C@@H]1O

>  <Val>
2

$$$$
>  <Smiles code>
O=C(CCc1ccccc1)Nc1nc(NC2CCCC2)c2ncn([C@@H]3O[C@H](CO)[C@@H](O)[C@H]3O)c2n1

>  <Val>
273

$$$$
>  <Smiles code>
Nc1nc(NC(=O)CCc2ccccc2)nc2c1ncn2[C@@H]1O[C@H](CO)[C@@H](O)[C@H]1O

>  <Val>
11

$$$$
>  <Smiles code>
Nc1nc(NC(=O)/C=C/c2ccccc2)nc2c1ncn2[C@@H]1O[C@H](CO)[C@@H](O)[C@H]1O

>  <Val>
58

$$$$

[1] O=C(CCC1CCCC1)Nc1nc(NC2CCCC2)c2ncn([C@@H]3O[C@H](CO)[C@@H](O)[C@H]3O)c2n1
[2] Nc1nc(NC(=O)CCCC2CCCCC2)nc2c1ncn2[C@@H]1O[C@H](CO)[C@@H](O)[C@H]1O
[3] Nc1nc(NC(=O)C2CCCCC2)nc2c1ncn2[C@@H]1O[C@H](CO)[C@@H](O)[C@H]1O
Put the compounds in ascending order of Ratio. To answer, arrange all of the labels according to the requested order.
3, 2, 1

[A] Nc1nc(NC(=O)CC2CCCCC2)nc2c1ncn2[C@@H]1O[C@H](CO)[C@@H](O)[C@H]1O
[B] CCNc1nc(NC(=O)CC2CCCCC2)nc2c1ncn2[C@@H]1O[C@H](CO)[C@@H](O)[C@H]1O
Smaller Ratio value, A vs B ? Indicate which entry you chose by stating its label.
A
(A: 7, B: 37)

----------
# System under test: Adenosine receptor A3 (Homo sapiens, UniProt P0DMS8)
# Sequence (P0DMS8 whole entry): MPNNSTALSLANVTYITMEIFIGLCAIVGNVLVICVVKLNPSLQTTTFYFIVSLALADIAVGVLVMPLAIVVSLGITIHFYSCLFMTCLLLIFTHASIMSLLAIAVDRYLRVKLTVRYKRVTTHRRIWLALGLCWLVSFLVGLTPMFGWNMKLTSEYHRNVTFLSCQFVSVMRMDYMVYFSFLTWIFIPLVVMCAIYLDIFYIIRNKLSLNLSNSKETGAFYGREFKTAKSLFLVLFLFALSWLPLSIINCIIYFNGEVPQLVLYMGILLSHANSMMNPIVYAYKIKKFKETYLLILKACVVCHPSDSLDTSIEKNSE
# Procedure summary: Displacement of [3H]NECA from human adenosine A3 receptor in stably transfected HEK cells
# Type: cell-based, HEK293
Property: Ki (nM)

Solved cases (4 shown):
>  <Smiles code>
Nc1nc(NC(=O)CCC2CCCC2)nc2c1ncn2[C@@H]1O[C@H](CO)[C@@H](O)[C@H]1O

>  <Units symbol>
nM

>  <Val>
1040

$$$$
>  <Smiles code>
CCNc1nc(NC(=O)CC2CCCCC2)nc2c1ncn2[C@@H]1O[C@H](CO)[C@@H](O)[C@H]1O

>  <Units symbol>
nM

>  <Val>
181

$$$$
>  <Smiles code>
Nc1nc(NC(=O)CCCC2CCCCC2)nc2c1ncn2[C@@H]1O[C@H](CO)[C@@H](O)[C@H]1O

>  <Units symbol>
nM

>  <Val>
1060

$$$$
>  <Smiles code>
O=C(CCC1CCCC1)Nc1nc(NC2CCCC2)c2ncn([C@@H]3O[C@H](CO)[C@@H](O)[C@H]3O)c2n1

>  <Units symbol>
nM

>  <Val>
1410

$$$$

[I] O=C(CCc1ccccc1)Nc1nc(NC2CCCC2)c2ncn([C@@H]3O[C@H](CO)[C@@H](O)[C@H]3O)c2n1
[II] Nc1nc(NC(=O)CCc2ccccc2)nc2c1ncn2[C@@H]1O[C@H](CO)[C@@H](O)[C@H]1O
Smaller Ki value, I vs II ? Indicate which entry you chose by stating its label.
I
(I: 1250 nM, II: 2710 nM)

[a] Nc1nc(NC(=O)C2CCCCC2)nc2c1ncn2[C@@H]1O[C@H](CO)[C@@H](O)[C@H]1O
[b] CCNC(=O)[C@H]1O[C@@H](n2cnc3c(N)nc(NC(=O)CCC4CCCC4)nc32)[C@H](O)[C@@H]1O
Smaller Ki value, a vs b ? Indicate which entry you chose by stating its label.
b

----------
# System under test: Adenosine receptor A2a (Homo sapiens)
# Procedure summary: Displacement of [3H]NECA from human adenosine A2A receptor in stably transfected CHO cells
pKi: −log10 of the molar value.
Property: pKi

[I] Nc1nc(NC(=O)/C=C/c2ccccc2)nc2c1ncn2[C@@H]1O[C@H](CO)[C@@H](O)[C@H]1O
[II] Nc1nc(NC(=O)CCC2CCCC2)nc2c1ncn2[C@@H]1O[C@H](CO)[C@@H](O)[C@H]1O
[III] CCNC(=O)[C@H]1O[C@@H](n2cnc3c(N)nc(NC(=O)CCC4CCCC4)nc32)[C@H](O)[C@@H]1O
Rank the 3 molecules: largest pKi first, smallest last. To answer, arrange all of the labels according to the requested order.
II, I, III
(II: 5.70, I: 5.39, III: 4.97)

----------
# System under test: Adenosine receptors; A1 & A3 (Homo sapiens) (UniProt P30542+P0DMS8)
# Procedure summary: Ratio of binding affinity for adenosine A3 receptor to adenosine A1 receptor
# Format: protein assay
Property: Ratio

Solved cases (2 shown):
>  <Smiles code>
Nc1nc(NC(=O)CCCC2CCCCC2)nc2c1ncn2[C@@H]1O[C@H](CO)[C@@H](O)[C@H]1O

>  <Val>
1.4

$$$$
>  <Smiles code>
Nc1nc(NC(=O)C2CCCCC2)nc2c1ncn2[C@@H]1O[C@H](CO)[C@@H](O)[C@H]1O

>  <Val>
1.7

$$$$

[A] O=C(CCc1ccccc1)Nc1nc(NC2CCCC2)c2ncn([C@@H]3O[C@H](CO)[C@@H](O)[C@H]3O)c2n1
[B] Nc1nc(NC(=O)CC2CCCCC2)nc2c1ncn2[C@@H]1O[C@H](CO)[C@@H](O)[C@H]1O
[C] CCNC(=O)[C@H]1O[C@@H](n2cnc3c(N)nc(NC(=O)CCC4CCCC4)nc32)[C@H](O)[C@@H]1O
Order the records so the highest Ratio appears first and the lowest last. To answer, arrange all of the labels according to the requested order.
A, B, C
(A: 60, B: 4, C: 0.2)

----------
# System under test: Adenosine receptor A1 (Homo sapiens, UniProt P30542)
# Sequence (P30542 whole entry): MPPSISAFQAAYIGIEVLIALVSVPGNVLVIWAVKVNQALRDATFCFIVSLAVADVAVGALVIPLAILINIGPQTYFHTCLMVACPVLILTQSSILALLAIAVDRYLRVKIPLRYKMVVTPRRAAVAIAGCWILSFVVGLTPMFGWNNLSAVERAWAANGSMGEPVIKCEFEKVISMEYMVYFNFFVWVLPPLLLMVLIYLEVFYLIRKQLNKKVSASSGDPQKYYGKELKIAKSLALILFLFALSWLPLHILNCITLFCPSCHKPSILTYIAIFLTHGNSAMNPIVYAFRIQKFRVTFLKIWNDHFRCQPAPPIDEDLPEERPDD
# Procedure summary: Displacement of [3H]CCPA from human adenosine A1 receptor expressed in CHO cells
# Type: cell-based
pKi: −log10 of the molar value.
Property: pKi

>  <Smiles code>
O=C(CCc1ccccc1)Nc1nc(NC2CCCC2)c2ncn([C@@H]3O[C@H](CO)[C@@H](O)[C@H]3O)c2n1

>  <Val>
7.68

$$$$
>  <Smiles code>
Nc1nc(NC(=O)C2CCCCC2)nc2c1ncn2[C@@H]1O[C@H](CO)[C@@H](O)[C@H]1O

>  <Val>
5.79

$$$$

[P] O=C(CCC1CCCC1)Nc1nc(NC2CCCC2)c2ncn([C@@H]3O[C@H](CO)[C@@H](O)[C@H]3O)c2n1
[Q] Nc1nc(NC(=O)CC2CCCCC2)nc2c1ncn2[C@@H]1O[C@H](CO)[C@@H](O)[C@H]1O
[R] CCNc1nc(NC(=O)CC2CCCCC2)nc2c1ncn2[C@@H]1O[C@H](CO)[C@@H](O)[C@H]1O
Put the compounds in ascending order of pKi. To answer, arrange all of the labels according to the requested order.
Q, R, P

----------
# System under test: Adenosine receptor A2a (Homo sapiens, UniProt P29274)
# Procedure summary: Displacement of [3H]NECA from human adenosine A2A receptor in stably transfected CHO cells
pKi: −log10 of the molar value.
Property: pKi

>  <Smiles code>
CCNc1nc(NC(=O)CC2CCCCC2)nc2c1ncn2[C@@H]1O[C@H](CO)[C@@H](O)[C@H]1O

>  <pKi>
5.11

$$$$
>  <Smiles code>
Nc1nc(NC(=O)CCCC2CCCCC2)nc2c1ncn2[C@@H]1O[C@H](CO)[C@@H](O)[C@H]1O

>  <pKi>
5.71

$$$$
>  <Smiles code>
Nc1nc(NC(=O)CCc2ccccc2)nc2c1ncn2[C@@H]1O[C@H](CO)[C@@H](O)[C@H]1O

>  <pKi>
5.34

$$$$
>  <Smiles code>
O=C(CCC1CCCC1)Nc1nc(NC2CCCC2)c2ncn([C@@H]3O[C@H](CO)[C@@H](O)[C@H]3O)c2n1

>  <pKi>
5.66

$$$$
>  <Smiles code>
Nc1nc(NC(=O)C2CCCCC2)nc2c1ncn2[C@@H]1O[C@H](CO)[C@@H](O)[C@H]1O

>  <pKi>
5.75

$$$$

[I] Nc1nc(NC(=O)CC2CCCCC2)nc2c1ncn2[C@@H]1O[C@H](CO)[C@@H](O)[C@H]1O
[II] O=C(CCc1ccccc1)Nc1nc(NC2CCCC2)c2ncn([C@@H]3O[C@H](CO)[C@@H](O)[C@H]3O)c2n1
Smaller pKi value, I vs II ? Indicate which entry you chose by stating its label.
II

Values from ChEMBL document CHEMBL1147632
